Origin of values: the supplement of paper PMC11865577

system: TO-3-N3-2 (biotin conjugate); assay: pull-down binding Z-score (relative to library population); higher = stronger binding; conditions: RNA library: Library-2
// values below are reported pull-down binding Z-score
Just the number.

pull-down binding Z-score in this record for AUCCCUUAGAUGCUAAGAUGGGGAU [hsa-mir-145] : -0.237

pull-down binding Z-score in this record for UGUUCACUUUCUAUAUGAUGAAUA [hsa-mir-656] : -0.523

pull-down binding Z-score in this record for CGGUGUGCAAAUGUGUGUGUGCGGUGUUAUGCCG [hsa-mir-4442] : -0.663

pull-down binding Z-score in this record for UGUUGCUUAUGAAAGUUUACGCCCUGACACACGUUAUGUGCUCAUGGAUGGCUCUAUUAUUCAAUUUCCUAACACCUACCUUGAAGGUUCUGUUAGAGUGGUAACA [SHAPE_invitro_SARS-CoV-2_Multi_27_ComplexLevel_1] : 0.0467

pull-down binding Z-score in this record for GCUGCUGCCCCAGAGGCCCAGCAGGUGUCCAGAAC [hsa-mir-6750] : 0.49

pull-down binding Z-score in this record for GAAAUGUGUGGAAGAUGGCAUUUC [hsa-mir-4482] : -0.00894

pull-down binding Z-score in this record for GUGCUGGCAGUGGCCACGUAA [hsa-mir-4276] : 0.0605

pull-down binding Z-score in this record for GGCGGAGGCAGGCGUGACCGUUUGCC [hsa-mir-4632] : 0.38

Continuing:
pull-down binding Z-score in this record for CCUUGUGAAUGUCGGGCAAUGG [hsa-mir-4701] : 0.357

pull-down binding Z-score in this record for GAGACAACUUCCCAGUCUC [hsa-mir-6717] : -0.519

pull-down binding Z-score in this record for GUCUUGAUCCCCCACCCCAAGAC [hsa-mir-642b] : -0.299

pull-down binding Z-score in this record for UUUGUGGAUUUUGAAAAGGUGCAGG [hsa-mir-15a] : 0.66

pull-down binding Z-score in this record for AACUUCUUAAGAGUGCUUAUGAAAAUUUUAAUCAGCACGAAGUU : 0.972

pull-down binding Z-score in this record for GGGUUCAAUAGAUUGCUUUAGCUGAAGCAAGCCU [hsa-mir-8054] : 0.131

pull-down binding Z-score in this record for GUGGCUAAUCAGCUGAUGGUGCCAC [hsa-mir-4715] : -0.511

pull-down binding Z-score in this record for GCUGGUAAUGUUCAACUCAGGGUUAUUGGACAUUCUAUGC [SHAPE_invivo_SARS-CoV-2_Motif_203] : -0.104

pull-down binding Z-score in this record for AUAUAAAAUGCAAUUA [hsa-mir-3945] : 0.327

pull-down binding Z-score in this record for CUUGAACAAUGGAACCUAGUAAUAGGUUUCCUAUUCCUUACAUGGAUUUGUCUUCUACAAUUUGCCUAUGCCAACAGGAAUAGGUUUUUGUAUAUAAUUAAG : -0.369

pull-down binding Z-score in this record for CAACAAUGUGUGAUAUCAGACAACUACUAUUUGUAGUUGAAGUUGUUG : 0.0207

pull-down binding Z-score in this record for CGUUGAGUGGGCACCCGAGAAGCCAUCG [hsa-mir-425] : 0.25

pull-down binding Z-score in this record for CUGAGGAAUUUGCUGGGAUAUGUCAG [hsa-mir-584] : 0.168
